Hey, just so you know, these numbers are from patent US20250368639A1.

assay.summary: Visual solubility of Form 1 in common solvents
Type: physicochemical
measurement.conditions: methanol, organic solvent or mixture, thermodynamic from solid, Methanol (MeOH)
value.type: Solubility

[[record]]
compound = "CCc1nc2ccccn2c1C(=O)c1cc(Br)c(O)c(C#N)c1 [Form 1]"
value_type = "Solubility"
measured_result = "< 1000 µg/mL"


* * *

assay.summary: Single-dose pharmacokinetic study, oral and intravenous, in SD rats
Format: in vivo, SD rat
measurement.conditions: male, SD, rat, plasma, iv, 1 mg/kg, male SD rats, intravenous 1 mg/kg, Average; read-out: Vz—pred
Experimental: Form 1, Form 2, and Form 5D were each evaluated via a single-dose pharmacokinetic study following oral and intravenous administration in SD rats. […] Form 1, Form 2, and Form 5Dwere evaluated by rat pharmacokinetics study. […] The computer program Microsoft Office Excel 2007 (Microsoft, USA) was used to process data and graphics. The pharmacokinetic parameters were calculated by WinNolin 6.4 software.
value.type: Vd (L/kg)

[[record]]
compound = "CCc1nc2ccccn2c1C(=O)c1cc(Br)c(O)c(C#N)c1 [Form 1]"
scale_unit = "L/kg"
measured_result = 0.24

